Values compiled from ChEMBL document CHEMBL1125259.

Give measured Activity (c.p.m. 50ul-1) for each item. Keep answers brief.
biological target: Human immunodeficiency virus type 1 reverse transcriptase (Human immunodeficiency virus 1) (UniProt Q72547); test: Compound ability to inhibit the production of HIV reverse transcriptase (RT) in culture supernatant of monocytic U937 on at 7 days at a concentration 0.2 uM; format: functional
Give bare numbers.

Reference set (3 entries):
molecule	Activity (c.p.m. 50ul-1)
Cc1cn([C@H]2C[C@H](N=[N+]=[N-])[C@@H](CO)O2)c(=O)[nH]c1=O [ZIDOVUDINE]	23000
CCCCCCCCCCCCCCCCOP(=O)(OC[C@H]1OC(O)[C@@H](O)[C@@H](O)[C@@H]1O)OC[C@H]1OC(n2cc(C)c(=O)[nH]c2=O)C[C@@H]1N=[N+]=[N-] (some centres undefined)	251000
CCCCCCCCCCCCCCCCOP(=O)(OCCO[C@H]1O[C@H](CO)[C@@H](O)[C@H](O)[C@@H]1O)OCC1OC(n2cc(C)c(=O)[nH]c2=O)CC1N=[N+]=[N-] (some centres undefined)	343000

For CCCCCCCCCCCCCCCCOP(=O)(OC[C@H]1OC(O)[C@H](O)[C@@H](O)[C@@H]1O)OC[C@H]1OC(n2cc(C)c(=O)[nH]c2=O)C[C@@H]1N=[N+]=[N-] (some centres undefined) , what is its reported Activity (c.p.m. 50ul-1)?
237000
